assay: protein stability index of a GFP-peptide fusion (GPS, HEK-293T) (PSI 1-6); higher = more stable; conditions: treatment: MLN4924 1 uM, 8 h; c terminus: a fixed tail appended;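 further: 24-mer peptide tiles fused after GFP, lentivirally expressed, FACS-sorted into six equal bins by GFP/DsRed ratio, decoded by Illumina sequencing, PSI is the read-weighted mean bin number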
Class criterion met: protein stability index at least 3. Class criterion not met: protein stability index below 3.

RDVKPENFLIGRQGNKKEHVIHII [CSNK1G1]: criterion not met
SPPEASPGPPAAPRARRRLGSGPD [PWWP2B]: criterion met
GPALWLRSTCVYVCALSALPAGPL [PLEKHN1]: criterion met
TSSSTVVSTQRSQDHFHVFVGDLS [TIA1]: criterion met
GLQNCVYPWDENHCKEKRKTSLLD [NETO1]: criterion met
RTMDIPRSVQNFRFFASSSLHHTS [ALDH8A1]: criterion not met
TFWASWRAFAQIGPARSGFRLETL [MIR22HG]: criterion not met
EQALGKGCGADSKKKRPPQPPEES [PLK2]: criterion met
VYSNTIQSIIAIIRAMGRLKIDFG [GNAI1]: criterion not met
PSITRKRRYVASVSLHDRIYVIGG [KLHL12]: criterion not met

Ask | In plain terms: is recorded protein stability index at least 3 for CSCQADPRHQGHRVQPVKDTAHDF [TRIM35] ?
Reply | criterion met

Ask | In plain terms: is recorded protein stability index at least 3 for HRAVASRSEEAVQVLIKHSADVNA [ANKRD44] ?
Reply | criterion met
